The reported measurements were obtained from PubChem BioAssay AID1159580.

Experiment: chemical genetic growth profiling, strain panel (AID 1159580);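 note: tested at 20 µM; growth read once vehicle control cultures reached saturation at 30 °C; 1 = growth at the plate median or of vehicle wells; lower values mean less growth of the strain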
Conditions: S. cerevisiae deletion strains, growth OD, locus YDR392W, strain spt3, hits give low values
The whole screen tested about 5,500 compounds, of which about 2,000 (36%) were called active. Another 18% or so got no clear call; they are omitted. The list shows a part of the results.
The reader will find reported normalized growth values listed item by item below.
Outcome Measure: normalized growth

| Compound | Observed Measurement |
| --- | --- |
| COc1ccc2cc1Oc1ccc(cc1)C[C@H]1c3cc(c(OC)cc3CCN1C)Oc1c(OC)c(OC)cc3c1[C@H](C2)N(C)CC3 | 0.79 (inactive) |
| Cc1c(N(C)C)c(=O)n(-c2ccccc2)n1C | 1 (inactive) |
| CN1CCCC(n2nc(Cc3ccc(Cl)cc3)c3ccccc3c2=O)CC1 (stereo not drawn) | 0.772 (inactive) |
| CC(C)(CO)C(O)C(=O)NCCCO (stereo not drawn) | 1.02 (inactive) |
| CCc1nc(N)nc(N)c1-c1ccc(Cl)cc1 | 1.02 (inactive) |
| Cn1cc[nH]c1=S | 0.887 (inactive) |
| OC(CCN1CCCCC1)(c1ccccc1)c1ccccc1 | 0.886 (inactive) |
| CC(C)(N=NC(C)(C)C(=N)N)C(=N)N | 0.98 (inactive) |

----------
Assay: chemical genetic growth profiling, strain panel (AID 1159580)
Details: S. cerevisiae deletion strains, growth OD, locus YNL322C, strain KRE1 (second series), hits give low values
In all, about 5,500 compounds went through this assay and about 2,000 (36%) were called active. About 18% were inconclusive and are not listed. The list shows a part of the results.
// reported normalized growth per item
Outcome Measure: normalized growth

| Smiles Str | Outcome Measure | Observed Measurement |
| --- | --- | --- |
| Cc1cccc(Nc2cc(Cl)nc(SCC(=O)O)n2)c1C | normalized growth | 0.996 |
| CN=C(NC#N)NCCSCc1nc(N=C(N)N)cs1 | normalized growth | 0.984 |
| O=C(O)c1ccccc1OP(=O)(O)O | normalized growth | 0.983 |
| CC(C)[N+](C)(CCOC(=O)C1c2ccccc2Oc2ccccc21)C(C)C | normalized growth | 1.02 |

----------
Test: chemical genetic growth profiling, strain panel (AID 1159580)
Conditions: S. cerevisiae deletion strains, growth OD, locus YGL167C, strain pmr1
Among all 5,500 compounds or so, about 2,000 (36%) were called active. Another 18% or so got no clear call; they are omitted. Cut-off read from the data, not from the text of the source: active = normalized growth mostly below about 0.91 (no sharp cut-off); inconclusive = no clear call, values can overlap the other calls; inactive = mostly above about 0.92. Some of the results follow.
Labels: true (active), false (inactive)

| Compound | Label Value |
| --- | --- |
| COc1cc(O)c(C(=O)c2ccccc2)cc1O | false |
| CCC1(C)CC(=O)NC1=O (stereo not drawn) | false |
| CC[C@@H](CO)NCCN[C@@H](CC)CO | false |
| CCCCOc1ccc(C(=O)CCN2CCCCC2)cc1 | false |
| C=C1CC[C@H](O)C/C1=C/C=C1\CCC[C@]2(C)C([C@H](C)/C=C/[C@H](C)C(C)C)CC[C@@H]12 (stereo partly drawn) | false |
| CCSC(=N)N | false |
| Cc1ccc2c(c1)CC[C@H]1CC(=O)CC[C@]21C | false |
| CC(C)CC1C(=O)N2CCC[C@H]2C2(O)O[C@](NC(=O)C3C=C4c5cccc6[nH]c(Br)c(c56)C[C@H]4N(C)C3)(C(C)C)C(=O)N12 (stereo partly drawn) | false |
| CCC(C(=O)O)c1ccccc1 (stereo not drawn) | false |
| COc1cccc([C@]2(O)CCCC[C@H]2CN(C)C)c1 | false |
| CCCCCC(=O)O[C@]1(C(C)=O)CCC2C3CCC4=CC(=O)CC[C@]4(C)C3CC[C@@]21C (stereo partly drawn) | false |
| O=C(O)C1CC([C@@H]2CCCCN2)CN2CCCCC12 (stereo partly drawn) | false |
| Cc1cccc(Nc2cc(Cl)nc(SCC(=O)O)n2)c1C | false |
| C[N+](C)(C)CC(=O)[O-] | false |
| COc1ccc(C(=O)c2ccccc2O)c(O)c1 | true |
| CC1(C)C2CC[C@]3(C)C(C(=O)C=C4[C@H]5C[C@@](C)(C(=O)O)CC[C@]5(C)CC[C@]43C)[C@@]2(C)CC[C@@H]1O (stereo partly drawn) | false |
| c1ccc(CN(CC2=NCCN2)c2ccccc2)cc1 | false |
| COc1c(O)cc2oc3cc(O)c(CC=C(C)C)c(O)c3c(=O)c2c1CC=C(C)C | false |
| OCC(O)Cc1ccc2c(c1)OCO2 (stereo not drawn) | false |
| CCCCCCCC/C=C/CCCCCCCCOP(=O)([O-])OCC[N+](C)(C)C | true |
| COC1C(O)C(O)C(O)[C@@H](O)C1O (stereo partly drawn) | false |
| CC(C)N(C(=O)CCl)c1ccccc1 | false |
| CC(C)[C@H](N)C(=O)OCCOCn1cnc2c(=O)[nH]c(N)nc21 | false |
| COC(=O)[C@@H]1C(O)CC[C@H]2CN3CCc4c([nH]c5ccccc45)[C@@H]3C[C@@H]21 (stereo partly drawn) | false |
| CO[C@H]1C[C@H](O[C@H]2[C@H](C)[C@@H](OC3O[C@H](C)C[C@H](N(C)C)[C@H]3O)[C@@H](C)C[C@]3(CO3)C(=O)[C@H](C)[C@@H](O)[C@@H](C)[C@@H](C)OC(=O)[C@@H]2C)O[C@@H](C)[C@@H]1O (stereo partly drawn) | false |
| CCC1(c2ccccc2)C(=O)NCNC1=O | false |
| CC(=O)[C@H]1CCC2C3C[C@H](C)C4=CC(=O)CC[C@]4(C)C3[C@@H](O)C[C@@]21C (stereo partly drawn) | false |
| CNc1ccccc1C(=O)N1CCc2c([nH]c3ccccc23)C1=O | false |

----------
Experiment: chemical genetic growth profiling, strain panel (AID 1159580);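 note: tested at 20 µM; growth read once vehicle control cultures reached saturation at 30 °C; 1 = growth at the plate median or of vehicle wells; lower values mean less growth of the strain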
Settings: S. cerevisiae deletion strains, growth OD, locus YOR316C, strain cot1, hits give low values
Among all 5,500 compounds or so, about 2,000 (36%) were called active. Not shown: some 18% with an inconclusive outcome. This is one part of the list.
normalized growth values, listed per item
Outcome Measure: normalized growth

| Molecule | Observed Measurement |
| --- | --- |
| COC(=O)[C@H]1[C@H]2C[C@H]3c4[nH]c5ccccc5c4CCN3C[C@H]2CC[C@@H]1O | 1.01 |
| OCc1ccccc1O[C@@H]1O[C@H](CO)[C@@H](O)[C@H](O)[C@H]1O | 0.975 |
| O=C(O)C1CC([C@@H]2CCCCN2)CN2CCCCC12 (stereo partly specified) | 0.971 |
| CNC1(C)C2CCC(C2)C1(C)C (stereo unspecified) | 0.985 |
| CC(=O)O[C@H]1C(=O)[C@@]2(C)C([C@H](OC(=O)c3ccccc3)[C@]3(O)C[C@H](OC(=O)[C@H](O)[C@@H](NC(=O)c4ccccc4)c4ccccc4)C(C)=C1C3(C)C)[C@]1(OC(C)=O)CO[C@@H]1C[C@@H]2O (stereo partly specified) | 1.06 |
| CC(=C(CCOP(=O)(O)O)SC(=O)c1ccccc1)N(C=O)Cc1cnc(C)nc1N | 1.01 |

----------
Assay: chemical genetic growth profiling, strain panel (AID 1159580);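 note: tested at 20 µM; growth read once vehicle control cultures reached saturation at 30 °C; 1 = growth at the plate median or of vehicle wells; lower values mean less growth of the strain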
Conditions: S. cerevisiae deletion strains, growth OD, locus YNL322C, strain KRE1, hits give low values
Hit rate of the full screen: of about 5,500 compounds, about 2,000 (36%) were called active. Inconclusive results (about 18%) are left out. The list shows a part of the results.
Reported normalized growth values for a set of compounds
Outcome Measure: normalized growth

| Compound | Observed Measurement |
| --- | --- |
| COC(=O)c1c(C)[nH]c(C)c1C(C)=O | 1.01 (inactive) |
| C=CC1=C(C(=O)O)N2C(=O)[C@@H](NC(=O)/C(=N/O)c3csc(N)n3)[C@H]2SC1 | 1 (inactive) |
| COC(=O)c1c(Cl)c(Cl)c(C(=O)OC)c(Cl)c1Cl | 0.994 (inactive) |
| O=C(O)c1cc(=O)c2cc(Cl)ccc2[nH]1 | 0.998 (inactive) |
| CC(C)=CCc1c(O)cc(C)oc1=O | 0.995 (inactive) |
| COc1ccccc1C1CCN(Cc2ccc3ccccc3c2)CC1 | 0.989 (inactive) |
| CC12CCC(C1)C(C)(C)C2NC(=O)c1cccs1 (configuration not stated) | 0.987 (inactive) |

----------
Experiment: chemical genetic growth profiling, strain panel (AID 1159580);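 note: tested at 20 µM; growth read once vehicle control cultures reached saturation at 30 °C; 1 = growth at the plate median or of vehicle wells; lower values mean less growth of the strain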
Details: S. cerevisiae deletion strains, growth OD, locus YPL256C, strain CLN2
The whole screen tested about 5,500 compounds, of which about 2,000 (36%) were called active. About 18% were inconclusive and are not listed. Rule as the data show it: active = normalized growth mostly below about 0.91 (no sharp cut-off); inconclusive = no clear call, values can overlap the other calls; inactive = mostly above about 0.92. The list shows a part of the results.
Labels: T for active, F for inactive

| Molecule | Label Value |
| --- | --- |
| COc1cc2oc3cc(OC)c(OC)c(CC=C(C)C)c3c(=O)c2c(O)c1CC=C(C)C | F |
| O=C(O)COc1cc(Cl)c(Cl)cc1Cl | F |
| C/C=C(/C(=C/C)c1ccc(O)cc1)c1ccc(O)cc1 | F |
| COc1cc(OC)c2c(c1)O[C@H](c1ccc(OC)c(OC)c1)[C@@H](O)C2 | F |
| COc1c(O)cc2oc3cc(O)c(CC=C(C)C)c(O)c3c(=O)c2c1CC=C(C)C | T |
| OCc1ccccc1O[C@@H]1O[C@H](CO)[C@@H](O)[C@H](O)[C@H]1O | F |
| S=C(Nc1cc(-c2cccs2)[nH]n1)Nc1ccccc1Cl | T |
| C[C@@H](N)CO | F |
| Cc1oc2c(F)c(F)c(F)c(F)c2c1C(=O)ONC(N)c1ccc(OS(=O)(=O)N(C)C)cc1 (configuration not stated) | F |
| COc1cc2c(cc1OC)C(=O)C(CC1CCN(Cc3ccccc3)CC1)C2 (configuration not stated) | F |
| O=C(Oc1cc(Cl)c(Cl)cc1Cl)C1c2ccccc2Oc2ccccc21 | T |
| C=CCc1ccc2c(c1)OCO2 | F |
| O=C1CCO1 | F |
| Oc1c(Cl)c(Cl)c(Cl)c(Cl)c1Cl | T |
| O=C(NCc1ccco1)c1ccc(Oc2cc(Cl)cc(Cl)c2)o1 | F |
| COc1ccc(NC(=O)O/N=C(/N)c2ccc(Oc3c(Cl)cncc3Cl)cc2)cc1 | T |
| O=C(Nc1cc(Cl)cc(Cl)c1)Nc1cc(-c2cccs2)[nH]n1 | T |
